- Target Of Assay: human CYP17A1 (CYP171dH) (Homo sapiens, UniProt P05093)
- Sequence (P05093 with tags, fused parts or gaps limits assumed): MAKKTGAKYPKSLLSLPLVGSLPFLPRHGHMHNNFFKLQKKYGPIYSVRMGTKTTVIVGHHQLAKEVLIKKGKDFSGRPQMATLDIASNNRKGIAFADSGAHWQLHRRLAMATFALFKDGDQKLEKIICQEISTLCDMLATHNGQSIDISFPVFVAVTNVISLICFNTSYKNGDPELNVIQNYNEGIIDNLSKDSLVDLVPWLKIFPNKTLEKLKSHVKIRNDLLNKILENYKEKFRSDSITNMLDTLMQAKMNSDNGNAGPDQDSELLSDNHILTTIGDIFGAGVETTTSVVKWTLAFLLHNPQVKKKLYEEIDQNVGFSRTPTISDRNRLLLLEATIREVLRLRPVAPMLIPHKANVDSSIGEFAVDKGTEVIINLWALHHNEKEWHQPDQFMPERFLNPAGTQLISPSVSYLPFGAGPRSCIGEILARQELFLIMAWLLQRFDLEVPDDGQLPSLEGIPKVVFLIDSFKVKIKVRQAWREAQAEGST
- Assay Summary: CYP17 inhibition studies
- Format: biochemical
Experimental Readout: pIC50
For clarity, pIC50 is expressed as the negative log10 of concentration in mol/L.

human CYP17A1 (CYP171dH) (Homo sapiens, UniProt P05093) assay, compound C[C@]12CC[C@H](O)CC1=CC[C@@H]1[C@@H]2CC[C@]2(C)C(n3ccnc3)=CC[C@@H]12 [VN/85-1, reference compound] , recorded pIC50 = 6.90

###

Exercise: state measured melting point for each of the molecules provided.

Memo: COc1ccc2ncn(C3=CC[C@H]4[C@@H]5CC=C6C[C@@H](O)CC[C@]6(C)[C@H]5CC[C@]34C)c2c1 , reported melting point: 169 to 179 °C

Memo: C[C@]12CC[C@H](O)CC1=CC[C@@H]1[C@@H]2CC[C@]2(C)C(n3cnc4cc5ccccc5cc43)=CC[C@@H]12 , reported melting point: 150 to 152 °C

Memo: C[C@]12CCC(=O)CC1=CC[C@@H]1[C@@H]2CC[C@]2(C)C(n3cnc4ccccc43)=CC[C@@H]12 , reported melting point: 170 to 172 °C

Memo: Cc1nccn1C(=O)O[C@H]1CC[C@@]2(C)C(=CC[C@@H]3[C@@H]2CC[C@]2(C)C(n4cnc5ccccc54)=CC[C@@H]32)C1 , reported melting point: 186 to 187 °C

Memo: Cc1cc2ncn(C3=CC[C@H]4[C@@H]5CC=C6C[C@@H](O)CC[C@]6(C)[C@H]5CC[C@]34C)c2cc1C , reported melting point: 194 to 196 °C

Memo: C[C@]12CC[C@H](O)CC1=CC[C@@H]1[C@@H]2CC[C@]2(C)C(n3cnc4c(Cl)ncnc43)=CC[C@@H]12 , reported melting point: 272 to 274 °C

Memo: C[C@]12CC[C@H](O)CC1=CC[C@@H]1[C@@H]2CC[C@]2(C)C(n3cnc4ccccc43)=C(CNc3ccccc3)C[C@@H]12 , reported melting point: 130 to 132 °C

Memo: C[C@]12CC[C@H](O)CC1=CC[C@@H]1[C@@H]2CC[C@]2(C)C(n3ccc4ccccc43)=CC[C@@H]12 , reported melting point: 142 to 145 °C

Memo: CC1(O)C=C2CC[C@@H]3[C@H](CC[C@]4(C)C(n5cnc6ccccc65)=CC[C@@H]34)[C@@]2(C)CC1 (stereo partly shown) , reported melting point: 95 to 97 °C

Memo: C[C@]12CC[C@H](OC(=O)n3ccnc3)CC1=CC[C@@H]1[C@@H]2CC[C@]2(C)C(n3cnc4ccccc43)=CC[C@@H]12 , reported melting point: 194 to 196 °C
